Tested on: SNB-19 CNS
Experiment: NCI tumour cell line growth inhibition, 48 h
PARAMETER_MEASURED: TGI

- COMPOUND: "Nc1ncnc2c1ncn2C1C=CC(CP(=O)(O)O)C1 (stereo not drawn)"
  PARAMETER_MEASURED: "TGI"
  MEASURED: "> 100 µM"
- COMPOUND: "CC(=O)OC1CC(O)CC2=CCC3C4CCC(C(C)(O)C(O)CC5COC(=O)C5C)C4(C)CCC3C21C (stereo not drawn)"
  PARAMETER_MEASURED: "TGI"
  MEASURED: "> 25 µM"
- COMPOUND: "NCCNc1nc(N2CCCC2)c2nc(Cl)c(NCc3ccccc3)nc2n1"
  PARAMETER_MEASURED: "TGI"
  MEASURED: "3.91 µM"
